These entries and their values trace back to the supplement of paper PMC9233669.

Test system: biotinyl-Met-oxazolone
Assay: self-aminoacylation, catalytic enhancement (BMO) (fold over background); higher = more active; k-Seq, kA / k0A0; sequences stand for … in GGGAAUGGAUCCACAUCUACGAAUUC…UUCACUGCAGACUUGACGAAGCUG
Variants at the floor of the assay were thinned out.
Quick reference: self-aminoacylation of the listed items.

[
  {
    "Record Sequence": "ACUAACCUAGGUCAUCGGGUG [Fam2.2 aminoacylation ribozyme variant]",
    "Study Target": "biotinyl-Met-oxazolone",
    "self-aminoacylation": 6.8
  },
  {
    "Record Sequence": "AUUACCCUGGUUAUCGAGUGA [Fam2.1 aminoacylation ribozyme variant]",
    "Study Target": "biotinyl-Met-oxazolone",
    "self-aminoacylation": 8.65
  },
  {
    "Record Sequence": "CUACUGCAACCAAUCGGUCUG [Fam1A.1 aminoacylation ribozyme variant]",
    "Study Target": "biotinyl-Met-oxazolone",
    "self-aminoacylation": 0.585
  },
  {
    "Record Sequence": "AUUACCCUGGUCAUCUUGUGA [Fam2.1 aminoacylation ribozyme variant]",
    "Study Target": "biotinyl-Met-oxazolone",
    "self-aminoacylation": 4.75
  },
  {
    "Record Sequence": "AUUACCCUGGGCCUCGAGUGA [Fam2.1 aminoacylation ribozyme variant]",
    "Study Target": "biotinyl-Met-oxazolone",
    "self-aminoacylation": 3.15
  },
  {
    "Record Sequence": "AUUACCCUGGGGAUCGAGUGA [Fam2.1 aminoacylation ribozyme variant]",
    "Study Target": "biotinyl-Met-oxazolone",
    "self-aminoacylation": 2.55
  },
  {
    "Record Sequence": "AUUUUUGCUAAUAGUCGCAAG [Fam3.1 aminoacylation ribozyme variant]",
    "Study Target": "biotinyl-Met-oxazolone",
    "self-aminoacylation": 1.07
  },
  {
    "Record Sequence": "CCACACUUCAAGCACCCGGUC [Fam1B.1 aminoacylation ribozyme variant]",
    "Study Target": "biotinyl-Met-oxazolone",
    "self-aminoacylation": 1.74
  },
  {
    "Record Sequence": "CCAAACCUCAAGCAAUCGGUC [Fam1B.1 aminoacylation ribozyme variant]",
    "Study Target": "biotinyl-Met-oxazolone",
    "self-aminoacylation": 1.12
  },
  {
    "Record Sequence": "AUGCACCUAGGUCAUCGGGAG [Fam2.2 aminoacylation ribozyme variant]",
    "Study Target": "biotinyl-Met-oxazolone",
    "self-aminoacylation": 1.39
  },
  {
    "Record Sequence": "CCUCACUUCAAGCAAUCUGUC [Fam1B.1 aminoacylation ribozyme variant]",
    "Study Target": "biotinyl-Met-oxazolone",
    "self-aminoacylation": 0.343
  },
  {
    "Record Sequence": "AUUACCCUAGUCAUAGAGUGA [Fam2.1 aminoacylation ribozyme variant]",
    "Study Target": "biotinyl-Met-oxazolone",
    "self-aminoacylation": 7.98
  },
  {
    "Record Sequence": "CAACUUCAACCAAUCGGUCUG [Fam1A.1 aminoacylation ribozyme variant]",
    "Study Target": "biotinyl-Met-oxazolone",
    "self-aminoacylation": 1.67
  },
  {
    "Record Sequence": "AUUACGCUGGUCAUUGAGUGA [Fam2.1 aminoacylation ribozyme variant]",
    "Study Target": "biotinyl-Met-oxazolone",
    "self-aminoacylation": 5.32
  },
  {
    "Record Sequence": "AUGACCCUGGUCAUCGAGUUA [Fam2.1 aminoacylation ribozyme variant]",
    "Study Target": "biotinyl-Met-oxazolone",
    "self-aminoacylation": 6.25
  },
  {
    "Record Sequence": "AUUACCCUACUCAUCGAGUGA [Fam2.1 aminoacylation ribozyme variant]",
    "Study Target": "biotinyl-Met-oxazolone",
    "self-aminoacylation": 7.19
  },
  {
    "Record Sequence": "CUUACCCUGGUCAUAGAGUGA [Fam2.1 aminoacylation ribozyme variant]",
    "Study Target": "biotinyl-Met-oxazolone",
    "self-aminoacylation": 6.37
  },
  {
    "Record Sequence": "UUUCACCUAGGUCAUUGGGUG [Fam2.2 aminoacylation ribozyme variant]",
    "Study Target": "biotinyl-Met-oxazolone",
    "self-aminoacylation": 2.51
  },
  {
    "Record Sequence": "AAGUUUGGGAAUAGUCGCAAG [Fam3.1 aminoacylation ribozyme variant]",
    "Study Target": "biotinyl-Met-oxazolone",
    "self-aminoacylation": 0.876
  }
]

###

Test system: biotinyl-Val-oxazolone
Test: self-aminoacylation, catalytic enhancement (BVO) (fold over background); higher = more active; k-Seq, kA / k0A0; sequences stand for … in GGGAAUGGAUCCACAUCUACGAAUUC…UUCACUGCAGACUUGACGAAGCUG
Variants at the floor of the assay were thinned out.
Classification field: enter 1 (yes) for self-aminoacylation values not below 0.9, 0 (no) for values below it.

[
  {
    "Record Sequence": "CUUCACCUAGGUCAUCGGAUG [Fam2.2 aminoacylation ribozyme variant]",
    "Cat": "1 (yes)"
  },
  {
    "Record Sequence": "AUUACCCGCGUCAUCGAGUGA [Fam2.1 aminoacylation ribozyme variant]",
    "Cat": "1 (yes)"
  },
  {
    "Record Sequence": "AUUAACCUGGGCAUCGAGUGA [Fam2.1 aminoacylation ribozyme variant]",
    "Cat": "1 (yes)"
  },
  {
    "Record Sequence": "CUAUUUCAAACAAUCAGUCUG [Fam1A.1 aminoacylation ribozyme variant]",
    "Cat": "0 (no)"
  },
  {
    "Record Sequence": "AAGUUUGCUAAUAGGCGCACG [Fam3.1 aminoacylation ribozyme variant]",
    "Cat": "0 (no)"
  },
  {
    "Record Sequence": "AUUACCCUGGUAAUCAAGUGA [Fam2.1 aminoacylation ribozyme variant]",
    "Cat": "1 (yes)"
  },
  {
    "Record Sequence": "AAGUUUGCUAAUAUUCGCAAU [Fam3.1 aminoacylation ribozyme variant]",
    "Cat": "1 (yes)"
  },
  {
    "Record Sequence": "AAGUUUGCUAAUAGCAGCAAG [Fam3.1 aminoacylation ribozyme variant]",
    "Cat": "0 (no)"
  },
  {
    "Record Sequence": "AUUCCCCUGGUAAUCGAGUGA [Fam2.1 aminoacylation ribozyme variant]",
    "Cat": "1 (yes)"
  },
  {
    "Record Sequence": "CUACUUCAAACCAUCGUUCUG [Fam1A.1 aminoacylation ribozyme variant]",
    "Cat": "0 (no)"
  },
  {
    "Record Sequence": "CCACACUUUAAGCAAUAGGUC [Fam1B.1 aminoacylation ribozyme variant]",
    "Cat": "0 (no)"
  },
  {
    "Record Sequence": "AUUCACCUAGGGCAUCGGUUG [Fam2.2 aminoacylation ribozyme variant]",
    "Cat": "1 (yes)"
  },
  {
    "Record Sequence": "CCAGACUUCAACCAAUCGGUC [Fam1B.1 aminoacylation ribozyme variant]",
    "Cat": "1 (yes)"
  }
]

###

Tested on: biotinyl-Leu-oxazolone
Assay: self-aminoacylation, catalytic enhancement (BLO) (fold over background); higher = more active; k-Seq, kA / k0A0; sequences stand for … in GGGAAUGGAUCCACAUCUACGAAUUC…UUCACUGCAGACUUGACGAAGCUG
Fewer inactive variants are shown than the library holds.
Classification field: enter Fulfilled for self-aminoacylation values not below 2, Not fulfilled for values below it.

[
  {
    "Record Sequence": "AAGUUUGCUAACAGUCGCCAG [Fam3.1 aminoacylation ribozyme variant]",
    "Cat": "Not fulfilled"
  },
  {
    "Record Sequence": "CUACUUCAAACAAUCGGUUUU [Fam1A.1 aminoacylation ribozyme variant]",
    "Cat": "Not fulfilled"
  },
  {
    "Record Sequence": "CUCCUCCAAACAAUCGGUCUG [Fam1A.1 aminoacylation ribozyme variant]",
    "Cat": "Not fulfilled"
  },
  {
    "Record Sequence": "CCACACAUCAAGCAAUCGGUG [Fam1B.1 aminoacylation ribozyme variant]",
    "Cat": "Fulfilled"
  },
  {
    "Record Sequence": "AUGUUUACUAAUAGUCGCAAG [Fam3.1 aminoacylation ribozyme variant]",
    "Cat": "Not fulfilled"
  },
  {
    "Record Sequence": "CUACUUCAAACAAUCGGUCCG [Fam1A.1 aminoacylation ribozyme variant]",
    "Cat": "Not fulfilled"
  },
  {
    "Record Sequence": "AUCACCCUGGUCGUCGAGUGA [Fam2.1 aminoacylation ribozyme variant]",
    "Cat": "Fulfilled"
  },
  {
    "Record Sequence": "CUACUUCAAACAAUCGCCCUG [Fam1A.1 aminoacylation ribozyme variant]",
    "Cat": "Not fulfilled"
  },
  {
    "Record Sequence": "CCACACUUCCAGCAAUCGGAC [Fam1B.1 aminoacylation ribozyme variant]",
    "Cat": "Not fulfilled"
  },
  {
    "Record Sequence": "CCACACUUCAAGCGAUAGGUC [Fam1B.1 aminoacylation ribozyme variant]",
    "Cat": "Not fulfilled"
  },
  {
    "Record Sequence": "AUUACCCUGGUCAUCCAGGGA [Fam2.1 aminoacylation ribozyme variant]",
    "Cat": "Not fulfilled"
  },
  {
    "Record Sequence": "AUUCACCUGGGUUAUCGGGUG [Fam2.2 aminoacylation ribozyme variant]",
    "Cat": "Fulfilled"
  },
  {
    "Record Sequence": "UUUUCCCUGGUCAUCGAGUGA [Fam2.1 aminoacylation ribozyme variant]",
    "Cat": "Fulfilled"
  },
  {
    "Record Sequence": "GUUACCCUCGUCAUCGAGUGA [Fam2.1 aminoacylation ribozyme variant]",
    "Cat": "Fulfilled"
  },
  {
    "Record Sequence": "AUUCUCCUCGGUCAUCGGGUG [Fam2.2 aminoacylation ribozyme variant]",
    "Cat": "Fulfilled"
  },
  {
    "Record Sequence": "CUUCACCUAGGUCCUCGGGUG [Fam2.2 aminoacylation ribozyme variant]",
    "Cat": "Fulfilled"
  },
  {
    "Record Sequence": "AUUCACCUAGUUCUUCGGGUG [Fam2.2 aminoacylation ribozyme variant]",
    "Cat": "Fulfilled"
  },
  {
    "Record Sequence": "AUUACCCUGGUCAUGGAAUGA [Fam2.1 aminoacylation ribozyme variant]",
    "Cat": "Not fulfilled"
  },
  {
    "Record Sequence": "AUUCUCCUAGGUGAUCGGGUG [Fam2.2 aminoacylation ribozyme variant]",
    "Cat": "Fulfilled"
  },
  {
    "Record Sequence": "CUACUUCAAACAAUCGGUAUG [Fam1A.1 aminoacylation ribozyme variant]",
    "Cat": "Not fulfilled"
  },
  {
    "Record Sequence": "AUUACCCUCGUCCUCGAGUGA [Fam2.1 aminoacylation ribozyme variant]",
    "Cat": "Fulfilled"
  },
  {
    "Record Sequence": "CUACUGCAAACAAUCCGUCUG [Fam1A.1 aminoacylation ribozyme variant]",
    "Cat": "Not fulfilled"
  },
  {
    "Record Sequence": "CUACAUCAAAUAAUCGGUCUG [Fam1A.1 aminoacylation ribozyme variant]",
    "Cat": "Not fulfilled"
  },
  {
    "Record Sequence": "ACUACCCUGGUCAUCGACUGA [Fam2.1 aminoacylation ribozyme variant]",
    "Cat": "Not fulfilled"
  },
  {
    "Record Sequence": "CUACUUCAAACAAUCGGCCUC [Fam1A.1 aminoacylation ribozyme variant]",
    "Cat": "Not fulfilled"
  },
  {
    "Record Sequence": "CUACUUCAAACAAUCGGCGUG [Fam1A.1 aminoacylation ribozyme variant]",
    "Cat": "Fulfilled"
  },
  {
    "Record Sequence": "AAUACCCUGGCCAUCGAGUGA [Fam2.1 aminoacylation ribozyme variant]",
    "Cat": "Fulfilled"
  },
  {
    "Record Sequence": "CUACUUCAAACAAACGUUCUG [Fam1A.1 aminoacylation ribozyme variant]",
    "Cat": "Not fulfilled"
  },
  {
    "Record Sequence": "AUUACCCUGGCCAUCGGGUGA [Fam2.1 aminoacylation ribozyme variant]",
    "Cat": "Fulfilled"
  }
]
